For each of the compounds below, state its combination Emax.
- Test system: 23132-87 (Gastric Carcinoma)
- METHOD_SUMMARY: combination Emax (second highest fraction inhibited in the dose matrix, 72 h); higher = more inhibition; extreme values may be limits of the assay
Give bare numbers.

CC(=O)c1c(C)c2cnc(Nc3ccc(N4CCNCC4)cn3)nc2n(C2CCCC2)c1=O [Palbociclib] + CN(CC[C@H](CSC1=CC=CC=C1)NC2=C(C=C(C=C2)S(=O)(=O)NC(=O)C3=CC=C(C=C3)N4CCC(CC4)[C@H](C5=CC=CC=C5C6=CC=C(C=C6)Cl)O)S(=O)(=O)C(F)(F)F)CCO [AZD4320] (first compound max 10 µM, 7x7, partner max 1 µM)    0.578
NC1(C(=O)N[C@@H](CCO)c2ccc(Cl)cc2)CCN(c2ncnc3[nH]ccc23)CC1 [Capivasertib] + Cn1cnc2c(F)c(Nc3ccc(Br)cc3Cl)c(C(=O)NOCCO)cc21 [Selumetinib] (first compound max 10 µM, 7x7, partner max 10 µM)    0.396
Cn1cnc2c(F)c(Nc3ccc(Br)cc3Cl)c(C(=O)NOCCO)cc21 [Selumetinib] + CC(C)n1c(=O)n(C)c2cnc3cc(F)c(-c4ccc(OCCCN5CCCCC5)nc4)cc3c21 [AZD1390] (first compound max 10 µM, 7x7, partner max 0.3 µM)    0.0937
Cn1cnc2c(F)c(Nc3ccc(Br)cc3Cl)c(C(=O)NOCCO)cc21 [Selumetinib] + CCN(CCO)CCCOc1ccc2c(Nc3cc(CC(=O)Nc4cccc(F)c4)[nH]n3)ncnc2c1 [AZD2811] (first compound max 10 µM, 7x7, partner max 1 µM)    0.104

Batch request: combination Emax for each of the following compounds.
1. C=CCn1c(=O)c2cnc(Nc3ccc(N4CCN(C)CC4)cc3)nc2n1-c1cccc(C(C)(C)O)n1 [AZD1775] + C[C@@H]1COCCN1C2=NC(=NC(=C2)C3(CC3)[S@](=N)(=O)C)C4=C5C=CNC5=NC=C4 [AZD6738] (first compound max 1 µM, partner max 10 µM)
2. Cc1c2c(nn1C)CSCc1cc(n(C)n1)CSc1cc(c3ccccc3c1)OCCCc1c(C(=O)O)n(C)c3c-2c(Cl)ccc13 [AZD5991] + C1CN(CCC1(C(=O)N[C@@H](CCO)C2=CC=C(C=C2)Cl)N)C3=NC=NC4=C3C=CN4 [Capivasertib] (first compound max 1 µM, 7x7, partner max 3 µM)

Result:
0.918
0.934

Query: Look up combination Emax: CCN(CCO)CCCOc1ccc2c(Nc3cc(CC(=O)Nc4cccc(F)c4)[nH]n3)ncnc2c1 [AZD2811] + C=CCn1c(=O)c2cnc(Nc3ccc(N4CCN(C)CC4)cc3)nc2n1-c1cccc(C(C)(C)O)n1 [AZD1775] (first compound max 1 µM, partner max 1 µM)
Result: 0.656
